System: parental HEK cells
Assay: HEK parental Agonist Counterscreen Assay (non-transfected cells)
Assay type: cell-based
Conditions: Homo sapiens, HEK293; HEK Agonist Activity section of Table 4 (parental HEK counterscreen)
Give measured EC50 for each item. Keep answers brief.

*Q* EC50 lookup needed for O=C(C1CC1)N1CCc2cc(S(=O)(=O)NCC3COc4ccccc4O3)ccc21 (stereo not drawn) , thanks.
*A* > 14.1 µM

*Q* // same read-out, input: Cc1c(C=O)c2ccccc2n1CC(=O)NCc1ccccc1
*A* > 14.1 µM

*Q* Now consider COc1cc(C(C)=O)ccc1OCC(=O)OCC(=O)NCCCc1ccccc1 and answer again.
*A* > 14.1 µM

*Q* Next compound: COc1cc(C(=O)NNC(=O)CCc2c[nH]c3ccccc23)ccc1OC(C)C
*A* > 14.2 µM

*Q* Lookup Nc1c(Cl)c(Cl)nc(C(=O)OCC(=O)NCc2ccccc2)c1Cl
*A* > 14.5 µM

*Q* Same question for C#CC1=C(CCCc2ccc(CC)cc2)CC(CCc2ccccc2CC)=C1 please.
*A* > 14.1 µM

*Q* Also need COc1ccc(CCCC(=O)c2cccc(-c3ccc(OC)cc3)c2)cc1 , thanks.
*A* > 14.1 µM

*Q* Same thing, different compound: COc1ccc(CC(=O)NNC(=O)C(C)Oc2ccc(Cl)cc2Cl)cc1 (stereo not drawn)
*A* > 14.1 µM

*Q* Please give the result for O=C(CCc1nc2ccccc2s1)NNC(=O)CSc1ccccc1F too.
*A* > 14.5 µM

* * *

Target: UniProtKB Q6DWJ6
Test: GPR139 Agonist titration / agonist counterscreen assay (calcium detection, HEK-GPR139 cells)
Assay type: cell-based
Set-up: expressed in transfected cells; host or cells: HEK Aequorin cells, Maxcyte transient transfection
Conditions: agonist counterscreen of the antagonists; scientific notation, molarity; read-out: GRP139 Agonist activity EC50
pEC50: −log10 of the molar value.
Result Type: pEC50

*Q* Looking for the measured pEC50 of O=C(NCCC1CCCCC1)N1c2ccccc2Sc2ccccc21 , can you help?
*A* < 4.90

*Q* Now give it for O=C(Nn1c(-c2cccc(Cl)c2)nc2ccccc2c1=O)c1cc(Br)ccc1Cl too.
*A* < 4.96

*Q* Also, CCOC(=O)c1c(C)nc2c(c1-c1ccc(F)cc1)C(=O)CC(c1ccc(Cl)cc1)C2 (stereo not shown) please.
*A* < 4.93

*Q* Another compound to check: COc1ccc(-n2cc(-c3ccccc3)nc2SCC(=O)Nc2ccccc2C)cc1
*A* < 4.87

* * *

Molecular target: GPR139 (Homo sapiens)
Sequence (Q6DWJ6 whole entry): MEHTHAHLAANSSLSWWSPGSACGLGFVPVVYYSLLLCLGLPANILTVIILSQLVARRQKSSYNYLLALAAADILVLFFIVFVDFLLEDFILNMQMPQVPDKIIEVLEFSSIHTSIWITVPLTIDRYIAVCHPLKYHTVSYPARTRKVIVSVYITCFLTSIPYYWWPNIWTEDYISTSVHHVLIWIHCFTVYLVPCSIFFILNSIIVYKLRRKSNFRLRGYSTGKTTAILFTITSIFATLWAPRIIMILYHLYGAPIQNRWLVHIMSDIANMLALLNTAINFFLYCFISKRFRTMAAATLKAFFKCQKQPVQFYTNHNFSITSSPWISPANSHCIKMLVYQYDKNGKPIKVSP
Assay: GPR139 Agonist titration / agonist counterscreen assay (calcium detection, HEK-GPR139 cells)
Type: cell-based
Parameters: expressed in transfected cells; host or cells: HEK Aequorin cells, Maxcyte transient transfection
Conditions: GPR139 Agonist Activity; activity relative to known control
Result Type: Averaged Max % Response (±St. Dev.)

*Q* Would you kindly share the measured Averaged Max % Response (±St. Dev.) for O=C(O)CC1CCCC1c1ccccc1 (stereo not drawn) [SR-01000320687] ?
*A* 65.23 ± 8.63%

*Q* Follow-up item: COc1ccc(CCC(=O)Nc2ccc(-c3cn[nH]c3)c(OC)c2)cc1 [SR-00000005955]
*A* 95.13 ± 3.75%

*Q* Try Cc1ccc(SCC(=O)Nc2nnc(-c3ccco3)o2)cc1 [SR-01000021414] next.
*A* 97.10 ± 8.84%

*Q* Now try COc1ccc(C(=O)NNC(=O)COc2ccc(Cl)cc2Cl)cc1OC [SR-01000357814] .
*A* 103.91 ± 10.30%

*Q* Try this molecule too: O=C(NCCc1ccc(Cl)cc1)c1nnc(Cc2ccc(F)cc2)o1 [SR-01000125346]
*A* 91.83 ± 43.39%

*Q* Further, for O=C(CNc1nnc(CCCOc2ccc(Cl)cc2Cl)o1)Nc1nccs1 [SR-01000280669] ?
*A* 83.43 ± 6.82%

*Q* Again, but for Nc1ccc(C(=O)OCC(=O)NC2CCCc3ccccc32)cc1[N+](=O)[O-] (stereo not drawn) [SR-01000034627]
*A* 64.98 ± 9.75%

*Q* Field entry: CC1C(CC(=O)NCC(=O)CCC2=Cc3ccccc3C2)=Nc2ccccc21 (stereo not drawn) [SR-01000068608]
*A* 124.32 ± 15.50%

*Q* Another: CCOc1ccc(C(=O)NCCc2ccc(F)cc2)cc1OCC [SR-01000243797]
*A* 105.74 ± 4.40%

*Q* Thanks! And Cc1cc(=O)n2nc(NCc3ccccc3Cl)nc2[nH]1 [SR-01000153886] ?
*A* 90.96 ± 29.33%

*Q* Can you check Cc1cc(-c2nnc(NC(=O)CCc3ccccc3)o2)n(C)n1 [SR-01000920602] next?
*A* 90.23 ± 7.66%

*Q* Also check O=C(NCc1csc(-c2cccs2)n1)C1CC(Cc2ccc3c(c2)OCO3)=NO1 (stereo not drawn) [SR-01000187428]
*A* 99.03 ± 14.80%

*Q* Try this molecule too: N#C/C(=C/c1ccc(CNS(=O)(=O)c2ccccc2)o1)C(=O)NCCc1ccccc1 [SR-01000318079]
*A* 102.46 ± 8.64%

*Q* Proceed to COc1cccc(CNC(=O)Nc2ccc(-c3ccncc3)cc2)c1.O=C(O)C(F)(F)F [SR-00000007266]
*A* 100.59 ± 15.12%

*Q* Next record, please: Cc1ccccc1CN1CCN(CC(=O)NCCc2ccc(Cl)cc2)C1=O [SR-01000093460]
*A* 112.00 ± 16.24%

*Q* Then this molecule: O=C(CCc1nc2ccccc2s1)NNC(=O)CSc1ccccc1F [SR-01000069574]
*A* 93.05 ± 4.55%

*Q* Input Cc1ccc(SCC(=O)NNC(=O)CCC(=O)c2cccs2)cc1 [SR-01000069391]
*A* 99.00 ± 11.26%

*Q* Follow-up entry: CC(C)c1ccc(NC(=O)Cn2ncc3c2-c2ccccc2OC3)cc1 [SR-01000098920]
*A* 139.09 ± 25.80%

* * *

Biological target: GPR139 (Homo sapiens)
Experiment: GPR139 Agonist titration / agonist counterscreen assay (calcium detection, HEK-GPR139 cells)
Assay type: cell-based
Set-up: expressed in transfected cells; host or cells: HEK Aequorin cells, Maxcyte transient transfection
Settings: GPR139 Agonist Activity; activity relative to known control
Provide the recorded Averaged Max % Response (±St. Dev.) for the entries that follow.
Give a bare numeral; the unit % is implied.

*Q* Can you look up the measured Averaged Max % Response (±St. Dev.) of COc1ccc(C2(C)NC(=O)C(CC(=O)NCCc3ccccc3)C2=O)cc1 (stereo not drawn) for me?
*A* 107.86

*Q* Try this compound next: Cn1c(CCc2ccc(F)cc2F)nnc1C1=C(O)N=C2CC=CC21 (stereo not drawn)
*A* 76.15

*Q* Try the compound CCCCC(=O)OCC(=O)NCc1ccc(C)cc1
*A* 92.84

*Q* # repeat for O=C(Cn1nc(Cc2ccncc2)c2ccccc2c1=O)NC(O)CCc1ccccc1 (stereo not drawn)
*A* 100.82

*Q* Same lookup for N#Cc1ccc(OC(=O)COc2cccc3ccccc23)cc1 , please.
*A* 77.18

*Q* // same read-out, input: Cc1ccc(CCNC(=O)Cn2cc3c(n2)CCCC3)cc1
*A* 136.99

*Q* Can you handle CC1(c2ccc3c(c2)OCO3)NC(=O)N(CC(=O)Nc2ccccc2[N+](=O)[O-])C1=O (stereo not drawn) next?
*A* 109.38

*Q* // same read-out, input: O=C(Cn1cnc2ccccc21)NCCCn1ccc2ccccc21
*A* 84.49

*Q* Another: O=C(CN1C(=O)NC2(CCCc3ccccc32)C1=O)N1CCCCCC1 (stereo not drawn)
*A* 81.52

* * *

Task for the reader: assign each of the following compounds its reported Efficiency Ligand.
Target: GPR139 (Homo sapiens)
Experiment: GPR139 Agonist titration / agonist counterscreen assay (calcium detection, HEK-GPR139 cells)
Assay type: cell-based
Design: expressed in transfected cells; host or cells: HEK Aequorin cells, Maxcyte transient transfection
Conditions: GPR139 Agonist Activity
Number, no unit, nothing else.

*Q* For O=C(O)CC1CCCC1c1ccccc1 (stereo not shown) , what is its reported Efficiency Ligand?
*A* 0.56

*Q* Can you handle COc1ccc(NC(=O)NC(O)(O)c2cccc(C(C)=O)c2)cc1 next?
*A* 0.38

*Q* And then Cc1ccc(CN2CC34C=CC(O3)C(C(=O)NCCC3=CCCCC3)C4C2=O)cc1 (stereo not shown) , what is it?
*A* 0.27

*Q* Item: CCOc1ccccc1NC(=O)CN1C(=O)NC(C)(c2ccc(Cl)cc2Cl)C1=O (stereo not shown)
*A* 0.29

*Q* Also N[C@H](Cc1ccccc1Cl)c1nc2ccc(-c3ccncc3)cc2[nH]1.O=C(O)C(F)(F)F.O=C(O)C(F)(F)F ?
*A* 0.34

*Q* What do we get for CC1CCCC(NC(=O)CN2CCN(Cc3ccc(F)cc3Cl)C2=O)C1C (stereo not shown) ?
*A* 0.33

*Q* Cc1ccccc1CN1CCC(O)(c2ccc(Cl)c(C(F)(F)F)c2)CC1 ?
*A* 0.31

*Q* Now this one: O=C(NCCS(=O)(=O)N1CCc2ccccc2C1)C(c1ccccc1)c1ccccc1
*A* 0.25

*Q* # repeat for COc1ccc(CSc2nnc(-c3cccnc3)n2N)cc1
*A* 0.41

*Q* Record: O=c1cc(-c2ccccc2)[nH]c2nc(OCc3cccc([N+](=O)[O-])c3)nn12
*A* 0.32

*Q* Another compound to check: Cc1onc(-c2ccccc2Cl)c1C(=O)N1CCC(Cn2ccnc2C)CC1
*A* 0.31

*Q* Proceed to COc1cc(C(=O)NNC(=O)CCc2c[nH]c3ccccc23)ccc1OC(C)C
*A* 0.31

*Q* Then what about the compound CC(C)CCNC(=O)CN1CCN(Cc2ccc(F)cc2Cl)C1=O ?
*A* 0.38

*Q* Then what about the compound CCOC(=O)N1CCC2=C(CC(NC(=O)Cc3cccc4ccccc34)=C2C(C)=O)C1 ?
*A* 0.26

*Q* Here is the next compound: O=C(CN1CC(=O)N(Cc2ccc(O)cc2)C(c2ccccc2Cl)C1=O)NCc1ccco1 (stereo not shown)
*A* 0.27

*Q* Same read-out for CC(CCc1ccccc1)NC(=O)Cn1ncc2c1-c1ccccc1OC2 (stereo not shown) ?
*A* 0.31

*Q* Continue with O=C(Cn1ncc2c1-c1ccccc1OC2)Nc1ccc(Cl)cc1 [SR-01000152099]
*A* 0.36

*Q* Then this compound: Cc1ccc(CNc2nc3ccccc3n2CCN2CCOCC2)cc1
*A* 0.33

*Q* Lookup COC(=O)c1ccc(CSc2nnc(N)s2)cc1
*A* 0.51

*Q* O=C(CSc1ccc(Cl)cc1)NNC(=O)c1ccc([N+](=O)[O-])cc1 ?
*A* 0.38

*Q* Next record, please: CC1CCCCN1C(=O)CN1C(=O)C2(CCc3ccccc3C2)NC1=S (stereo not shown)
*A* 0.33

*Q* Same for O=C(Cn1nnc2c1-c1ccccc1OC2)Nc1cccc(Cl)c1
*A* 0.37

*Q* Follow-up entry: CC12C=CC3(CN(Cc4ccccc4)C(=O)C3C1C(=O)NCC1COc3ccccc3O1)O2 (stereo not shown)
*A* 0.27

*Q* Now give it for C=C(CCC)c1ccc(CCC2=NNC(c3ccccc3)N2C)cc1 (stereo not shown) too.
*A* 0.33

*Q* // query: CCCC1(CCC)NC(=O)N(CC(=O)NCc2ccc(Cl)cc2)C1=O
*A* 0.36

*Q* Entry O=C(CNc1nnc(CCCOc2ccc(Cl)cc2Cl)o1)Nc1nccs1 please
*A* 0.33

*Q* Please answer likewise for COC(=O)C(CCSC)NC(=O)C1CC(Cc2ccc3c(c2)OCO3)=NO1 (stereo not shown)
*A* 0.30

*Q* // same read-out, input: Cn1c(CCc2ccc(F)cc2F)nnc1C1=C(O)N=C2CC=CC21 (stereo not shown)
*A* 0.36

*Q* Thanks! And Cc1cc(C)c2c(cnn2CC(=O)N2CCc3ccccc3C2)c1 ?
*A* 0.36

*Q* Also CCn1c2ccccc2c2cc(C3C(C#N)=C(N)Oc4n[nH]c(C)c43)ccc21 (stereo not shown) ?
*A* 0.27

*Q* Another compound: O=C(Nc1ccc(-c2c[nH]cn2)cc1)C1COc2ccc(F)cc2C1 (stereo not shown)
*A* 0.35

*Q* What about O=C(CC1C(=O)N(c2ccccc2)C(=O)N1Cc1ccc2c(c1)OCO2)Nc1ccc(Cl)cc1 (stereo not shown) ?
*A* 0.26

*Q* Now consider Cc1ccc(CNC(=O)Cn2nc(-c3ccc(C)cc3)ccc2=O)cc1 and answer again.
*A* 0.32

*Q* Try this compound too: Cc1[nH]ncc1-c1ccc(NC(=O)C2COc3ccc(F)cc3C2)c(OCCN2CCOCC2)c1.O=C(O)C(F)(F)F.O=C(O)C(F)(F)F (stereo not shown)
*A* 0.25
